# target.desc: human CD33 variant I47W (human, UniProt P20138 18-364)
# Sequence (P20138 18-364 I47W limits assumed): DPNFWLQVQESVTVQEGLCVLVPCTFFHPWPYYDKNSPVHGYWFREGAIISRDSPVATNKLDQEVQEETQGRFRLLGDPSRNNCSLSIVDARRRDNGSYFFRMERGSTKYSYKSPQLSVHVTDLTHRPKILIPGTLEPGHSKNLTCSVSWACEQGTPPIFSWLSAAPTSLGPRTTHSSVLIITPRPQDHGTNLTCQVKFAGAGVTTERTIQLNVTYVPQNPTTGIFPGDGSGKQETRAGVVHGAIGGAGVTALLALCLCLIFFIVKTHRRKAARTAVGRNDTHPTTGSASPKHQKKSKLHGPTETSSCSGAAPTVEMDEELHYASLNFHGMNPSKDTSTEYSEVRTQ
# measurement.description: flow cytometry, IgG on cells expressing the mutant
measurement.kind: Mean % WT Binding

>  <binder>
Refmab #2 (antibody, human IgG1, V domains shown, Tested in IgG format; human IgG1 Fc silent (PG-LALA)) VH: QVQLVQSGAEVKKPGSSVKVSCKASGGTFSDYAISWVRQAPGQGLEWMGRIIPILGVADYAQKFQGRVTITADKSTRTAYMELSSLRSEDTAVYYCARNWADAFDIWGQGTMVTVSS VL: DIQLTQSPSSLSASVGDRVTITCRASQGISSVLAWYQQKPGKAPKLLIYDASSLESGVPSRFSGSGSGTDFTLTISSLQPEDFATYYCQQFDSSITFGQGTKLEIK

>  <Mean % WT Binding>
0.6 % of WT

$$$$
>  <binder>
Refmab #4 (antibody, human IgG1, V domains shown, Tested in IgG format; human IgG1 Fc silent (PG-LALA)) VH: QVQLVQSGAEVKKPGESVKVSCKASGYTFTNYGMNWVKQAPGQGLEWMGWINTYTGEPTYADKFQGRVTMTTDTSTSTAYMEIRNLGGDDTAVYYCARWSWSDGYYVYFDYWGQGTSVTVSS VL: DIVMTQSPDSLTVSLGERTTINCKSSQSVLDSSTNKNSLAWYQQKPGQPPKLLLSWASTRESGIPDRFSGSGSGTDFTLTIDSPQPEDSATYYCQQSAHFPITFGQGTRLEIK

>  <Mean % WT Binding>
86.8 % of WT

$$$$

// next item, Mean % WT Binding requested
Please report the recorded Mean % WT Binding for Refmab #3 (antibody, human IgG1, V domains shown, Tested in IgG format; human IgG1 Fc silent (PG-LALA)) VH: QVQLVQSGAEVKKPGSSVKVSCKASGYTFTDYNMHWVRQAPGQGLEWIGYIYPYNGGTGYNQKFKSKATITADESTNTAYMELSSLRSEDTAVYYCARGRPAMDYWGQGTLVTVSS VL: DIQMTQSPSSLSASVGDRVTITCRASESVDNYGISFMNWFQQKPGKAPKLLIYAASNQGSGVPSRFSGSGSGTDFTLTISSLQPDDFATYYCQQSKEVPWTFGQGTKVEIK .
112 % of WT

Reference for the values: patent US20260242735A1
